Test system: Mpl-expressing Ba/F3 cell line (human mpl gene)
Assay: Measurement of thrombopoietin (TPO) activity: viable cell count of Mpl-expressing Ba/F3 cell line (Cell Count Reagent SF, absorbance 450 nm)
Format: cell-based
Conditions: concentration corresponding to the maximum TPO activity value
value-type: Concentration (µM)
Could you give me the number in µM? Just the number is fine.

So what's the measured Concentration for this one? NCCCC[C@H](NC(=O)Cc1ccccc1)C(=O)Nc1ccc(C(c2ccc(NC(=O)[C@H](CCCCN)NC(=O)Cc3ccccc3)cc2)c2ccc(NC(=O)[C@H](CCCCN)NC(=O)Cc3ccccc3)cc2)cc1.O=C(O)C(F)(F)F 12.5

Reported Concentration for Cc1cccc2c(CC(=O)N[C@H](CCCCN)C(=O)Nc3ccc(C(c4ccc(NC(=O)[C@@H](CCCCN)NC(=O)Cc5c[nH]c6c(C)cccc56)cc4)c4ccc(NC(=O)[C@@H](CCCCN)NC(=O)Cc5c[nH]c6c(C)cccc56)cc4)cc3)c[nH]c12.Cl : what is it? 25

Please give the measured Concentration for this compound: NCCCC[C@@H](NC(=O)c1cccc(O)c1)C(=O)Nc1ccc(C(c2ccc(NC(=O)[C@@H](CCCCN)NC(=O)c3cccc(O)c3)cc2)c2ccc(NC(=O)[C@@H](CCCCN)NC(=O)c3cccc(O)c3)cc2)cc1.O=C(O)C(F)(F)F 25

Dear colleague, I am looking for the recorded Concentration of the following compound: CN(C)CCCC[C@H](NC(=O)Cc1ccsc1)C(=O)Nc1ccc(C(c2ccc(NC(=O)[C@H](CCCCN(C)C)NC(=O)Cc3ccsc3)cc2)c2ccc(NC(=O)[C@H](CCCCN(C)C)NC(=O)Cc3ccsc3)cc2)cc1 25

====

Please go through the items and note down their Concentration.
Tested on: Mpl-expressing Ba/F3 cell line (human mpl gene)
Test: Measurement of thrombopoietin (TPO) activity: viable cell count of Mpl-expressing Ba/F3 cell line (Cell Count Reagent SF, absorbance 450 nm)
Format: cell-based
Conditions: concentration corresponding to the maximum TPO activity value
Enter your answer as a number in µM; do not include the unit.

Which Concentration value belongs to Cl.NCCCC[C@H](NC(=O)Cc1c[nH]c2ccc(O)cc12)C(=O)Nc1ccc(C(c2ccc(NC(=O)[C@H](CCCCN)NC(=O)Cc3c[nH]c4ccc(O)cc34)cc2)c2ccc(NC(=O)[C@H](CCCCN)NC(=O)Cc3c[nH]c4ccc(O)cc34)cc2)cc1 [Example 18] ? 50

// lookup Concentration for Cl.NCCCC[C@H](NC(=O)c1cccnc1)C(=O)Nc1ccc(C(c2ccc(NC(=O)[C@H](CCCCN)NC(=O)c3cccnc3)cc2)c2ccc(NC(=O)[C@H](CCCCN)NC(=O)c3cccnc3)cc2)cc1 [Example 17] 50

Look at this compound and give its reported Concentration. Cl.NCCCC[C@H](NC(=O)Cc1ccsc1)C(=O)Nc1ccc(C(c2ccc(NC(=O)[C@H](CCCCN)NC(=O)Cc3ccsc3)cc2)c2ccc(NC(=O)[C@H](CCCCN)NC(=O)Cc3ccsc3)cc2)cc1 [Example 13] 25

What does the data say about its Concentration? Entry: Cl.NCCCC[C@@H](NC(=O)c1cc2cc(O)ccc2[nH]1)C(=O)Nc1ccc(C(c2ccc(NC(=O)[C@@H](CCCCN)NC(=O)c3cc4cc(O)ccc4[nH]3)cc2)c2ccc(NC(=O)[C@@H](CCCCN)NC(=O)c3cc4cc(O)ccc4[nH]3)cc2)cc1 [Example 151] 50

Reported Concentration, compound COc1ccc2[nH]c(C)c(CC(=O)N[C@@H](CCCCN(C)C)C(=O)Nc3ccc(C(c4ccc(NC(=O)[C@H](CCCCN(C)C)NC(=O)Cc5c(C)[nH]c6ccc(OC)cc56)cc4)c4ccc(NC(=O)[C@H](CCCCN(C)C)NC(=O)Cc5c(C)[nH]c6ccc(OC)cc56)cc4)cc3)c2c1 [Example 31] : ____ 25

I'd like to know its Concentration. The compound in question is COc1ccc2[nH]c(C)c(CC(=O)N[C@@H](CCCN)C(=O)Nc3ccc(C(c4ccc(NC(=O)[C@H](CCCN)NC(=O)Cc5c(C)[nH]c6ccc(OC)cc56)cc4)c4ccc(NC(=O)[C@H](CCCN)NC(=O)Cc5c(C)[nH]c6ccc(OC)cc56)cc4)cc3)c2c1.O=C(O)C(F)(F)F [Example 135] 50

Can you share its Concentration? I mean this compound: COc1ccc2[nH]c(C)c(CC(=O)N[C@@H](CCCCN)C(=O)Nc3ccc(C(c4ccc(NC(=O)[C@H](CCCCN)NC(=O)Cc5c(C)[nH]c6ccc(OC)cc56)cc4)c4ccc(NC(=O)[C@H](CCCCN)NC(=O)Cc5c(C)[nH]c6ccc(OC)cc56)cc4)cc3)c2c1.Cl [Example 6] 25

What value of measured Concentration is listed for NCCCC[C@@H](NC(=O)c1cccc2cc(O)ccc12)C(=O)Nc1ccc(C(c2ccc(NC(=O)[C@@H](CCCCN)NC(=O)c3cccc4cc(O)ccc34)cc2)c2ccc(NC(=O)[C@@H](CCCCN)NC(=O)c3cccc4cc(O)ccc34)cc2)cc1.O=C(O)C(F)(F)F [Example 192] ? 25
